systemTested: hHDAC-1 (Homo sapiens, UniProt Q13547)
Sequence (Q13547 whole entry): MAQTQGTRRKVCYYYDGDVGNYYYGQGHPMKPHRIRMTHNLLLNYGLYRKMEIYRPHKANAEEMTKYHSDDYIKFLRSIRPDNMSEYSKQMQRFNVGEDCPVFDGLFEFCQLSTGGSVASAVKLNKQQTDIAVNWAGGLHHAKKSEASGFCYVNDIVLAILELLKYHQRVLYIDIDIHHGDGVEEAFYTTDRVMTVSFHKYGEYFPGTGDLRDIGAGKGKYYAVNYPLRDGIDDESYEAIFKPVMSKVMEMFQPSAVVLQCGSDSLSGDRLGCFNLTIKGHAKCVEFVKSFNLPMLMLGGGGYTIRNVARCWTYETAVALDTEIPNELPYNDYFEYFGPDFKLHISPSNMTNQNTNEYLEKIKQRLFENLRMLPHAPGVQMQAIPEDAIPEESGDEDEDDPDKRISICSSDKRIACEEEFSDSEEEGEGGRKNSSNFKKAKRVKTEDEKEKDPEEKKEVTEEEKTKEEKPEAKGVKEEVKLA
metric: pKd
Please note pKd is a logarithmic value: minus log10 of concentration in mol/L. Answer with that number alone.

Let me check: CCCCCCCCCCCCC/C=C/[C@@H](O)[C@@H](N)COP(=O)(O)O [S1P, Sphingosine-1-Phosphate] , system hHDAC-1 (Homo sapiens, UniProt Q13547), measured pKd is 5.79

----------
systemTested: PfHDAC-1 (histone deacetylase-1) (Plasmodium falciparum)
Sequence (Q9XYC7 1-449): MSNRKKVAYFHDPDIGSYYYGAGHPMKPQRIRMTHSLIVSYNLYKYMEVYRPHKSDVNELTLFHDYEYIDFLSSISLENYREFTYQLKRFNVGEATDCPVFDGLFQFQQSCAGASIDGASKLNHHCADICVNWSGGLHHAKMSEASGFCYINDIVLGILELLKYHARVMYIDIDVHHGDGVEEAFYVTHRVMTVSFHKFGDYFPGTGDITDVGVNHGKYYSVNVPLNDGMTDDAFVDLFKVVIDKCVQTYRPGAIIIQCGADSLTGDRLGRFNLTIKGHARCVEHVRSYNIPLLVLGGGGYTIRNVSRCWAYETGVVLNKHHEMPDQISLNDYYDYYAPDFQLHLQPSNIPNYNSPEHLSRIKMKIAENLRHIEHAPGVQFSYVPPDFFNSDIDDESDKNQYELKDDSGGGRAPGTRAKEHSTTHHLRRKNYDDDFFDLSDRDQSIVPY
runDescription: microscale thermophoresis; also lipid overlay, S1P-bead pull-down, and […] inhibition of the recombinant enzyme at […]
Assay type: binding
Design: gene HDAC1; full-length, 6×His-PfHDAC-1 (1380 bp CDS from Pf3D7)
metric: Kd (nM)
Give the value in nM but do not write nM after it.

Considering CCCCCCCCCCCCC/C=C/[C@@H](O)[C@@H](N)COP(=O)(O)O [S1P, Sphingosine-1-Phosphate] , its Kd with PfHDAC-1 (histone deacetylase-1) (Plasmodium falciparum) was recorded as 177
